Tested on: Plasmodium berghei
Test: Screen against P. berghei liver stage (PbLuc), transformed with Luciferase, at 2uM
Assay type: functional, HepG2
Settings: tested at 2 uM
Screen size: about 68,000 compounds; about 2,700 (4%) showed an effect of 50% or more. The sample holds strong results, similar compounds and a random draw of the others, so the mix is not that of the screen.
Parameter measured: INHIBITION (%)
Give bare numbers, in %.

                                   compound  parameter_measured  number
0        O=C(CN1CCC(Nc2ncccn2)CC1)Nc1ccccc1          INHIBITION   36.28
1  Cc1ncsc1C(=O)NC1CCN(CCC(=O)Nc2ccccc2)CC1          INHIBITION    1.02
2   CN1CCN(Cc2nnc(C3CCN(C(CO)CO)CC3)n2C)CC1          INHIBITION   59.68
3  CCN(CC)C(=O)[C@@H]1C[C@H](n2cc(-c3cccc(OC)c3)nn2)CN1          INHIBITION   36.28
4  CS(=O)(=O)N1CCC2(CC1)CC(Oc1ccccn1)CO2 (stereo not drawn)          INHIBITION   -0.23
5  CN(C)S(=O)(=O)N1CCC2(CC1)CC(Oc1ccccn1)CO2 (stereo not drawn)          INHIBITION   56.78
6  O=C(C1CCOCC1)N1CCOC(CC2CCCCC2)C1 (stereo not drawn)          INHIBITION   28.91
7  Cc1cc(NC(=O)C(C)Cn2cc(Br)cn2)no1 (stereo not drawn)          INHIBITION    0.55
8  c1ccc(OC2COC3(CCN(Cc4ccccn4)CC3)C2)cc1 (stereo not drawn)          INHIBITION   62.15
9  CC(C)c1nccn1Cc1cc(C(=O)NCC(F)(F)F)n[nH]1          INHIBITION   -7.52

Below is a list of compounds. For each, state its recorded INHIBITION.
1. CCN(CC)C(=O)[C@@H]1C[C@@H](n2cc(-c3cccc(OC)c3)nn2)CN1
2. Cc1cnc(CN2C[C@H]3CC(Oc4ccccc4)C[C@H]3C2)cn1 (stereo partly drawn)
3. Nc1nc2c(c(NCc3nccs3)n1)CCN(CC1CCCC1)CC2
4. CN1CCN(Cc2nnc(C3CCN(C4CCCCC4)CC3)n2C)CC1
5. CCC(=O)NCC(=O)NCC(C)(C)c1cccc(Br)c1
6. CN(C)S(=O)(=O)N1CCC[C@]2(C[C@@H](Oc3ccccn3)CO2)C1
7. CCN(CC)C(=O)[C@@H]1C[C@@H](n2cc(-c3ccccn3)nn2)CN1
8. Cc1ccc(CCNC(=O)Nc2cc(C(F)(F)F)c[nH]c2=O)o1

Response:
[57.75, 25.06, -1.29, 26.81, 15.2, 19.61, 38.67, -0.12]

Below is a list of compounds. For each, state its recorded INHIBITION.
1. c1ccc(CO[C@@H]2CO[C@@]3(CCN(Cc4ccccn4)C3)C2)nc1
2. CCCc1n[nH]c(C2CN(C(=O)CCCn3ccnc3C)CCO2)n1 (stereo not drawn)
3. c1ccc(CN2CC[C@]3(C[C@@H](Oc4ccccn4)CO3)C2)nc1

Response:
40.25
-15.07
8.1

Below is a list of compounds. For each, state its recorded INHIBITION.
1. COc1cccc(CC2CN(C3CCN(C(C)=O)CC3)CCO2)c1 (stereo not drawn)
2. Cc1ncoc1C(=O)N1CCOC(CC2CCCCC2)C1 (stereo not drawn)

Response:
17.75
-78.64

Each recorded value in this set is attributed to ChEMBL document CHEMBL4513216.
